Target of assay: EHMT1 (Homo sapiens)
Sequence (Q9H9B1 1-1298): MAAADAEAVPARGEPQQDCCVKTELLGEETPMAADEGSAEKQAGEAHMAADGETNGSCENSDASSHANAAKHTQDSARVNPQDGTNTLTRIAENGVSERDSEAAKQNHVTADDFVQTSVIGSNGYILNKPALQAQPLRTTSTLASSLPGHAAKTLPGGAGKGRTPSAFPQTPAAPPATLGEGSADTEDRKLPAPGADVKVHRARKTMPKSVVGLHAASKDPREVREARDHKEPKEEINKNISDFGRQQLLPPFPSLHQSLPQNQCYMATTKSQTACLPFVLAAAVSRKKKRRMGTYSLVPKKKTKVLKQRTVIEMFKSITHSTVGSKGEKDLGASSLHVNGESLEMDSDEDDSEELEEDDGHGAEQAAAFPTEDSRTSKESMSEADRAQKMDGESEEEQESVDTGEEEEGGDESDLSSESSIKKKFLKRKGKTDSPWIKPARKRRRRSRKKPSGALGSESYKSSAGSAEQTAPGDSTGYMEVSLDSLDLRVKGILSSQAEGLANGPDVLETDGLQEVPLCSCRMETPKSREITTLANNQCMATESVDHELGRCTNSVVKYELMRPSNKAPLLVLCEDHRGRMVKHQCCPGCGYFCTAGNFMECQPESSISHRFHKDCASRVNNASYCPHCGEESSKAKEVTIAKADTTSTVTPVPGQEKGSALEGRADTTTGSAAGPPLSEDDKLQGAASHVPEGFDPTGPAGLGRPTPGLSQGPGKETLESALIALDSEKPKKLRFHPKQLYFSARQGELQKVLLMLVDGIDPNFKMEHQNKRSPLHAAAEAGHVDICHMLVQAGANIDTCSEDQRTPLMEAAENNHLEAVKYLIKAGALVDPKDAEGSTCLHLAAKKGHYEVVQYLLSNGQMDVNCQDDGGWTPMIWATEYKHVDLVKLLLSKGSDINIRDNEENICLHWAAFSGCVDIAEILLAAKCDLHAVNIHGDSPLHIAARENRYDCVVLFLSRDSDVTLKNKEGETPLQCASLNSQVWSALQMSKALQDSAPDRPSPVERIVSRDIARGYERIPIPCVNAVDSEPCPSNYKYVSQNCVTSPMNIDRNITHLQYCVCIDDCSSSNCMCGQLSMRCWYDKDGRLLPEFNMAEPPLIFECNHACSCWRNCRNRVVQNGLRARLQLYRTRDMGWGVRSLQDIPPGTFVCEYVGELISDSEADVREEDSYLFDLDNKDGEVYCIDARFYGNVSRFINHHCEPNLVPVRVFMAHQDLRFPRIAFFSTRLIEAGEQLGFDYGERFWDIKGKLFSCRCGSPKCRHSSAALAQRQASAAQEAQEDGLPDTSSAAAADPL
Method notes: EHMT1 enzyme assay on peptide substrate (EHMT1 PEP)
Format: biochemical
Test conditions: Table II; read-out: EHMT1 PEP (IC50 μM)
Entries and their IC50

[
  {
    "Molecule": "COc1ccc(Nc2nccc(N3CCS(=O)(=O)CC3)n2)cc1OCCCN1CCCC1 [Compound 169]",
    "IC50": "> 10 µM"
  },
  {
    "Molecule": "COc1ccc(Nc2nccc(NCC3CCN(C(C)=O)CC3)n2)cc1OCCCN1CC[C@H](F)C1 [Compound 117]",
    "IC50": "1 to 10 µM"
  },
  {
    "Molecule": "COc1ccc(Nc2nccc(NCC3CCN(C(C)=O)CC3)n2)cc1COCCN1CCCC1 [Compound 48]",
    "IC50": "0.1 to 1 µM"
  },
  {
    "Molecule": "CCCCNc1ccnc(NCC2CCN(C)CC2)n1 [Compound 87]",
    "IC50": "1 to 10 µM"
  },
  {
    "Molecule": "CCCCNc1ccnc(NCCCN)n1 [Compound 77]",
    "IC50": "> 10 µM"
  }
]

---

Target of assay: EHMT1 (Homo sapiens, UniProt Q9H9B1)
Method notes: EHMT1 enzyme assay on peptide substrate (EHMT1 PEP)
Type: biochemical
Test conditions: Table VII; read-out: EHMT1 PEP IC50
This section presents compounds with their documented IC50 values.

[
  {
    "Compound": "CNc1cc(C)nc(Nc2ccc(OC)c(CNCCN3CC[C@@H](F)C3)c2)n1",
    "IC50": "< 100 nM"
  },
  {
    "Compound": "CNc1ccnc(Nc2cnc(OC)c(OC[C@@H]3CCN(C)C3)c2)n1",
    "IC50": "< 100 nM"
  },
  {
    "Compound": "CNCC(C)(O)COc1cc(Nc2nccc(OC)n2)ccc1OC (centres unmarked)",
    "IC50": "> 10000 nM"
  },
  {
    "Compound": "CNc1ccnc(Nc2ccc(OC)c(ONC[C@@H]3CCCN3)c2)n1",
    "IC50": "100 to 1000 nM"
  },
  {
    "Compound": "CNc1ccnc(Nc2ccc(OC)c(OCC[C@@H]3CCCN3)c2)n1",
    "IC50": "100 to 1000 nM"
  }
]

---

Target of assay: human EHMT2 913-1193 (Homo sapiens, UniProt Q96KQ7)
Construct: recombinant purified human EHMT2 913-1193, Viva; purchased Viva
Sequence (Q96KQ7 913-1193): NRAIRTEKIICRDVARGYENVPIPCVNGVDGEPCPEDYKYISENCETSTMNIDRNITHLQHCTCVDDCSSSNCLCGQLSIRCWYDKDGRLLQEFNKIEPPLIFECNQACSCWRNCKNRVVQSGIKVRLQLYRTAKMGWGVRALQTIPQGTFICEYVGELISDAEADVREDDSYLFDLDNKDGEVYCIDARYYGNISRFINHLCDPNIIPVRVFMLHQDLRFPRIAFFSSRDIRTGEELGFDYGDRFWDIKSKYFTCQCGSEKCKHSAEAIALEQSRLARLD
Method notes: EHMT2 enzyme assay on histone peptide substrate (EHMT2 PEP)
Type: biochemical
Test conditions: Table III; read-out: EHMT2 PEP (IC50 μM)
Reported IC50 values for the following molecules.
Reported metric: IC50

[
  {
    "Molecule": "COc1ccc(Nc2ccc3cnn(C)c3n2)cc1OCCCN1CCCC1 [Compound 257]",
    "Reported metric": "IC50",
    "Value reported": "> 10 µM"
  },
  {
    "Molecule": "CNc1ccnc(Nc2ccc(OC)c(OCCCN3CC(O)C3)c2)n1 [Compound 414]",
    "Reported metric": "IC50",
    "Value reported": "< 0.1 µM"
  },
  {
    "Molecule": "CNc1cc(Nc2cc(OCCCN3CCCC3)c(OC)cn2)cnn1 [Compound 323]",
    "Reported metric": "IC50",
    "Value reported": "> 10 µM"
  },
  {
    "Molecule": "CNc1cc(C)nc(Nc2ccc(OC)c(OCC3CCN(C)C3)c2)n1 (single isomer, unassigned) [Compound 417]",
    "Reported metric": "IC50",
    "Value reported": "0.1 to 1 µM"
  },
  {
    "Molecule": "CCc1cc(NC)nc(Nc2ccc(OC)c(OCCCN3CCCC3)c2)n1 [Compound 364]",
    "Reported metric": "IC50",
    "Value reported": "< 0.1 µM"
  },
  {
    "Molecule": "CNc1ccnc(Nc2cccc(N3CCC(N(C)C)C3)c2)n1 (centres unmarked) [Compound 397]",
    "Reported metric": "IC50",
    "Value reported": "> 10 µM"
  },
  {
    "Molecule": "CNc1ccnc(Nc2ccc(OC)c(OCc3cc(C4CC4)on3)c2)n1 [Compound 426]",
    "Reported metric": "IC50",
    "Value reported": "> 10 µM"
  },
  {
    "Molecule": "COc1ccc(Nc2nccc(NCC(F)(F)F)n2)cc1OCCCN1CCCC1 [Compound 392]",
    "Reported metric": "IC50",
    "Value reported": "0.1 to 1 µM"
  }
]

---

Target of assay: human EHMT2 913-1193 (Homo sapiens, UniProt Q96KQ7)
Construct: recombinant purified human EHMT2 913-1193, Viva; purchased Viva
Method notes: EHMT2 enzyme assay on histone peptide substrate (EHMT2 PEP)
Format: biochemical
Test conditions: Table VI; read-out: EHMT2 PEP IC50

[
  {
    "Compound": "CNc1ccnc(Nc2ccc(OC)c(OC[C@H](CN3CCCC3)OC)c2)n1 [Compound 920]",
    "IC50": "100 to 1000 nM"
  },
  {
    "Compound": "CNc1cc(C)nc(Nc2c[nH]c(=O)c(OCCCN3CCCC3)c2)n1 [Compound 621]",
    "IC50": "> 10000 nM"
  },
  {
    "Compound": "CNc1cc(C(C)C)c2cc(OC)c(OCCCN3CCCC3)cc2n1 [Compound 817]",
    "IC50": "< 100 nM"
  },
  {
    "Compound": "CNc1ccnc(Nc2ccc(OC)c(OCC(C)(O)CN3CCC3)c2)n1 (centres unmarked) [Compound 1005]",
    "IC50": "1000 to 10000 nM"
  },
  {
    "Compound": "COc1ncc(Nc2nc(C)cc(NCC3COC3)n2)cc1OC[C@@H](O)CN1CCCC1 [Compound 883]",
    "IC50": "> 10000 nM"
  },
  {
    "Compound": "CNc1nc(C2CCCCN2C)c2cc(OC)c(OCCCN3CCCC3)cc2n1 (centres unmarked) [Compound 747]",
    "IC50": "100 to 1000 nM"
  },
  {
    "Compound": "COc1cc2c(C#CCN3CCOCC3)cc(C)nc2cc1OCCCN1CCCC1 [Compound 763]",
    "IC50": "> 10000 nM"
  },
  {
    "Compound": "CNc1ccnc(Nc2ccc(OC)c(CNC[C@@H]3CCCN3)c2)n1 [Compound 1019]",
    "IC50": "1000 to 10000 nM"
  },
  {
    "Compound": "COc1cc2c(C3CCN(C)CC3)c(F)c(C)nc2cc1OCCCN1CCCC1 [Compound 652]",
    "IC50": "100 to 1000 nM"
  },
  {
    "Compound": "COc1ccc(Nc2nc(C)cc(NC3CCOC3)n2)cc1OCCCN1CCCC1 (centres unmarked) [Compound 789]",
    "IC50": "< 100 nM"
  },
  {
    "Compound": "COc1ccc(Nc2nc(C)cc(C3CCOCC3)n2)cc1OCCCN1CCCC1 [Compound 870]",
    "IC50": "> 10000 nM"
  },
  {
    "Compound": "COc1cc2c(C3CCN(C4CCOCC4)CC3)cc(C)nc2cc1OCCCN1CCCC1 [Compound 755]",
    "IC50": "< 100 nM"
  },
  {
    "Compound": "COc1cc(N(C)C2CCNCC2)ncc1OCC1CCNC1 (centres unmarked) [Compound 1041]",
    "IC50": "100 to 1000 nM"
  },
  {
    "Compound": "CNc1cc(CC2CCOCC2)c2cc(OC)c(OCCCN3CCCC3)cc2n1 [Compound 823]",
    "IC50": "< 100 nM"
  },
  {
    "Compound": "COc1cc2c(C3CCN(C)CC3)cc(C#N)nc2cc1OCCCN1CCCC1 [Compound 790]",
    "IC50": "100 to 1000 nM"
  },
  {
    "Compound": "CCN1CC(COc2cc3nc(C)nc(C4CCN(C(C)C)CC4)c3cc2OC)C1 [Compound 665]",
    "IC50": "1000 to 10000 nM"
  },
  {
    "Compound": "COc1cnc(Nc2cccn3cncc23)cc1OCCCN1CCCC1 [Compound 638]",
    "IC50": "> 10000 nM"
  },
  {
    "Compound": "COc1ccc(Nc2nc(C)cc(NC3CCCOC3)n2)cc1OCCCN1CCCC1 (centres unmarked) [Compound 788]",
    "IC50": "100 to 1000 nM"
  },
  {
    "Compound": "CNc1cc(C)nc(Nc2cc(OCCCN3CCCC3)c3nncn3c2)n1 [Compound 622]",
    "IC50": "1000 to 10000 nM"
  },
  {
    "Compound": "CNc1cc(C)nc(Nc2cnc(OC)c(OC[C@@H]3CCNC3)c2)n1 [Compound 641]",
    "IC50": "< 100 nM"
  },
  {
    "Compound": "COc1cnc(Nc2cc(NCC3COC3)cnn2)cc1OCCCN1CCCC1 [Compound 894]",
    "IC50": "100 to 1000 nM"
  },
  {
    "Compound": "COc1cc2c(C3CCCN(C)C3)nc(C)nc2cc1OCCCN1CCCC1 (centres unmarked) [Compound 743]",
    "IC50": "1000 to 10000 nM"
  },
  {
    "Compound": "CCc1cc(NC)nc(Nc2ccc(OC)c(OC[C@@H]3CCN(CC)C3)c2)n1 [Compound 671]",
    "IC50": "100 to 1000 nM"
  },
  {
    "Compound": "CNc1cc(C)nc(Nc2ccc(OC)c(C#CC3CCCN3)c2)n1 (centres unmarked) [Compound 846]",
    "IC50": "< 100 nM"
  },
  {
    "Compound": "CNCCCOc1cc(Nc2nccc(NC)n2)ccc1OC [Compound 916]",
    "IC50": "100 to 1000 nM"
  },
  {
    "Compound": "CCc1nc(NC2CCNCC2)ncc1OCC1CCN(C)C1 (centres unmarked) [Compound 630]",
    "IC50": "> 10000 nM"
  },
  {
    "Compound": "COc1cc2c(C3CCOCC3)cc(=O)[nH]c2cc1OCCCN1CCCC1 [Compound 822]",
    "IC50": "> 10000 nM"
  },
  {
    "Compound": "COc1cc(N(C)C2CCN(C)CC2)ncc1OCC1CCNC1 (centres unmarked) [Compound 1042]",
    "IC50": "1000 to 10000 nM"
  },
  {
    "Compound": "CCN1CC[C@@H](COc2cc(Nc3nc(NC)cc(C(C)C)n3)ccc2OC)C1 [Compound 672]",
    "IC50": "< 100 nM"
  }
]

Origin of values: patent US20210198277A1
